Test system: LXRa:RXRa (NR concentration 270 nM, RXRa partner concentration 90 nM)
Assay procedure: PBM binding z-score (relative to random genomic background probes); higher = stronger binding; sequences stand for … in GC…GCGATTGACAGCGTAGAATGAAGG
Decide using PBM binding z-score: a value greater than or equal to 1 is y, a smaller one is n.

# Residue sequence, Target under test, Class
data = [
    ("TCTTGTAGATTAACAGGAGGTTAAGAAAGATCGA", "LXRa:RXRa (NR concentration 270 nM, RXRa partner concentration 90 nM)", "y"),
    ("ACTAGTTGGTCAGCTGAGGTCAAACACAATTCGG", "LXRa:RXRa (NR concentration 270 nM, RXRa partner concentration 90 nM)", "y"),
    ("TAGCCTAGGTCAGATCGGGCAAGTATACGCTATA", "LXRa:RXRa (NR concentration 270 nM, RXRa partner concentration 90 nM)", "y"),
]

Enquiry: Hi, just wondering whether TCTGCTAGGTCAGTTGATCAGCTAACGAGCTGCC shows PBM binding z-score of 1 or higher.
Return: n

Enquiry: Hi, just wondering whether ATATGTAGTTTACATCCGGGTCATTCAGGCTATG shows PBM binding z-score of 1 or higher.
Return: y

Enquiry: Hi, just wondering whether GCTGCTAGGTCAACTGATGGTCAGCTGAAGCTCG shows PBM binding z-score of 1 or higher.
Return: y

Enquiry: Hi, just wondering whether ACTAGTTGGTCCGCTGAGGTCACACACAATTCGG shows PBM binding z-score of 1 or higher.
Return: y

Enquiry: Hi, just wondering whether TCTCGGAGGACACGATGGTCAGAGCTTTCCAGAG shows PBM binding z-score of 1 or higher.
Return: n

Enquiry: Hi, just wondering whether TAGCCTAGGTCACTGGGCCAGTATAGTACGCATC shows PBM binding z-score of 1 or higher.
Return: y

Enquiry: Hi, just wondering whether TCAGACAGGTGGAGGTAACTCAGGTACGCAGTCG shows PBM binding z-score of 1 or higher.
Return: y
